Sourced from ChEMBL document CHEMBL1134904

# Test system: Neisseria gonorrhoeae
# test summary: The compound was tested for minimal inhibitory concentration against Neisseria gonorrhoeae
# Format: functional
measurement name: MIC (µg/mL)
A number alone suffices; assume µg/mL.

chemical string	endpoint unit	MIC
C[C@H]1c2cccc(O)c2C(=O)C2=C(O)[C@]3(O)C(=O)C(C(N)=O)=C(O)[C@@H](N(C)C)[C@@H]3[C@@H](O)[C@@H]21.O	µg/mL	0.5
COc1ccc(CN=C=S)cc1	µg/mL	4
CC1(C)S[C@@H]2[C@H](NC(=O)[C@H](N)c3ccccc3)C(=O)N2[C@H]1C(=O)O	µg/mL	0.25

--- query ---
Give Neisseria gonorrhoeae MIC for `O=C(O)c1cn(C2CC2)c2cc(N3CCNCC3)c(F)cc2c1=O`
0.25

====

# Tested on: Bacillus subtilis
# test summary: The compound was tested for minimal inhibitory concentration against Bacillus subtilis
# Assay type: functional
Measured MIC by item

Check out these entries, answers already filled in.
compound	MIC
C[C@H]1c2cccc(O)c2C(=O)C2=C(O)[C@]3(O)C(=O)C(C(N)=O)=C(O)[C@@H](N(C)C)[C@@H]3[C@@H](O)[C@@H]21.O [DOXYCYCLINE]	8 µg/mL
O=C(O)c1cn(C2CC2)c2cc(N3CCNCC3)c(F)cc2c1=O [CIPROFLOXACIN]	2 µg/mL
CC1(C)S[C@@H]2[C@H](NC(=O)[C@H](N)c3ccccc3)C(=O)N2[C@H]1C(=O)O [AMPICILLIN]	> 32 µg/mL

Below: the item to evaluate.
Give its MIC value. Item: `COc1ccc(CN=C=S)cc1`
32 µg/mL

====

# System: Enterobacter sp.
# test summary: The compound was tested for minimal inhibitory concentration against Enterobacter sp.
# Assay type: functional
measurement name: MIC (µg/mL)
// note: answer is a bare numeric in µg/mL

Query: MIC; subject: `O=C(O)c1cn(C2CC2)c2cc(N3CCNCC3)c(F)cc2c1=O`
2

Query (compound): `C[C@H]1c2cccc(O)c2C(=O)C2=C(O)[C@]3(O)C(=O)C(C(N)=O)=C(O)[C@@H](N(C)C)[C@@H]3[C@@H](O)[C@@H]21.O` ; field requested: MIC
8

Form field: reported MIC of `COc1ccc(CN=C=S)cc1`
8

Could you share which MIC value was measured for `CC1(C)S[C@@H]2[C@H](NC(=O)[C@H](N)c3ccccc3)C(=O)N2[C@H]1C(=O)O` ?
16
